- SUBJECT OF TEST: human NKp30 (human) (UniProt O14931)
- Sequence (O14931 19-135 limits assumed): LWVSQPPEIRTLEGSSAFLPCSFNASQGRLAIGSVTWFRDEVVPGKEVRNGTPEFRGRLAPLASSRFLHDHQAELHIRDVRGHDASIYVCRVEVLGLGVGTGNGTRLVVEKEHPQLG
- ASSAY REMARKS: BLI, ratio to ΔB7-H6_wt
ASSAY METRIC: x-fold Koff improvement (fold)
# number only, unit fold dropped from output

ΔB7-H6_S3#30-SEED-PGLALA (bispecific antibody, part only; not given: SEED Fc chains and hu225 Fab, part only) chain, part: DLKVEMMAGGTQITPLNDNVTIFCNIFYSQPLNITEMGITWFWKSLTFDKEVKVFEFWGDHQEAFRPGAIVSPWRLKSGDASLRLPGIQLEEAGEYRCEVIVTPLKAQGTVQLEVVASPAS    2.2

Problem: Returns the measured x-fold Koff improvement for the input binder. Input: ΔB7-H6_S3#19-SEED-PGLALA (bispecific antibody, part only; not given: SEED Fc chains and hu225 Fab, part only) chain, part: DLKVEMMAGGTQITPLNDNVTIFCNIFYSQPLNITQMGITWFWKSLTFDKEVKVFEFWGDHQEAFRPGAIVSPWRLKSGDASLRLPGIQLEEAGEYRCEVVVTPYKAQGTVQLEVVASPAS
Solution: 1.7

Problem: Returns the measured x-fold Koff improvement for the input binder. Input: ΔB7-H6_S2#14-SEED-PGLALA (bispecific antibody, part only; not given: SEED Fc chains and hu225 Fab, part only) chain, part: DLKVEMMAGGTQITPLNDNVTIFCNIFYSQPLNITTMGITWFWKSLTFDKEVKVFEFFGDHQEAFRPGAIVSPWRLKSGDASLRLPGIQLEEAGEYRCEVVVTPYKAQGTVQLEVVASPAS
Solution: 1.4

Problem: Returns the measured x-fold Koff improvement for the input binder. Input: ΔB7-H6_S3#10-SEED-PGLALA (bispecific antibody, part only; not given: SEED Fc chains and hu225 Fab, part only) chain, part: DLKVEMMAGGTQITPLNDNVTIFCNIFYSQPLNITSMGITWFWKSLTFDKEVKVFEFYGDHQEAFRPGAIVSPWRLKSGDASLRLPGIQLEEAGEYRCEVFVTPYKAQGTVQLEVVASPAS
Solution: 1.7

Problem: Returns the measured x-fold Koff improvement for the input binder. Input: ΔB7-H6_S3#14-SEED-PGLALA (bispecific antibody, part only; not given: SEED Fc chains and hu225 Fab, part only) chain, part: DLKVEMMAGGTQITPLNDNVTIFCNIFYSQPLNITTMGITWFWKSLTFDKEVKVFEFYGDHQEAFRPGAIVSPWRLKSGDASLRLPGIQLEEAGEYRCEVVVTPYKAQGTVQLEVVASPAS
Solution: 5.2

Problem: Returns the measured x-fold Koff improvement for the input binder. Input: ΔB7-H6_S3#18-SEED-PGLALA (bispecific antibody, part only; not given: SEED Fc chains and hu225 Fab, part only) chain, part: DLKVEMMAGGTQITPLNDNVTIFCNIFYSQPLNITYMGITWFWKSLTFDKEVKVFEFWGDHQEAFRPGAIVSPWRLKSGDASLRLPGIQLEEAGEYRCEVVVTPYKAQGTVQLEVVASPAS
Solution: 12.4

Problem: Returns the measured x-fold Koff improvement for the input binder. Input: ΔB7-H6_S3#22-SEED-PGLALA (bispecific antibody, part only; not given: SEED Fc chains and hu225 Fab, part only) chain, part: DLKVEMMAGGTQITPLNDNVTIFCNIFYSQPLNITEMGITWFWKSLTFDKEVKVFEFWGDHQEAFRPGAIVSPWRLKSGDASLRLPGIQLEEAGEYRCEVVVTPYKAQGTVQLEVVASPAS
Solution: 3.8

Problem: Returns the measured x-fold Koff improvement for the input binder. Input: ΔB7-H6_S3#8-SEED-PGLALA (bispecific antibody, part only; not given: SEED Fc chains and hu225 EGFR Fab, part only) chain, part: DLKVEMMAGGTQITPLNDNVTIFCNIFYSQPLNITHMGITWFWKSLTFDKEVKVFEFWGDHQEAFRPGAIVSPWRLKSGDASLRLPGIQLEEAGEYRCEVIVTPLKAQGTVQLEVVASPAS
Solution: 3.7
